Hi there, I'd appreciate the recorded clearance for every entry that follows.
Assay: Clearance in Wistar Han rat at 0.5 mg/kg, iv or 1 mg/kg, po by LC-MS/MS analysis
Assay type: ADME, organism-based
Conditions: in vivo
Numbers only, in mL/min/kg.

>>> print(df.to_string())
                                 testsmiles  unitstring  value
0  O=C(O)[C@@H]1CCN(c2nn(C(=O)c3c(Cl)cccc3C3CC3)c3cccc(F)c23)C[C@H]1O   mL/min/kg     13

Shifting focus to the compound that follows.
Ask: Could you tell me which clearance is on file for O=C(O)c1ccc(-c2nn(C(=O)c3c(Cl)cccc3C(F)(F)F)c3cccnc23)c(F)c1 ?
Reply: 76

The origin of these recorded values is ChEMBL document CHEMBL4334546.
